assay: gradient 5% acetonitrile 3 min, to 50% in 2 min, to 85% in 15 min, held 3 min, 100 µL/min; conditions: column: Zorbax Extend-C18 2.1 x 50 mm; eluents: water / acetonitrile, 0.1% formic acid
EXPERIMENTAL READOUT: RP-LC retention time (s)

COMPOUND	RP-LC retention time / s
O=C(O)C1(c2cc(-c3ccccc3)on2)CC1	736
O=C(NCc1ccccc1Cl)C1COCC(=O)N1Cc1ccccc1 (stereo unspecified)	724
O=C(c1ccsc1)N1CCOc2ccc(N3CCOCC3)cc2C1	701
CCC(=O)Nc1c(C)noc1/C=C/c1ccc(S(=O)(=O)Nc2ccc(S(N)(=O)=O)cc2)s1	719
Cc1noc(C)c1CCNC(=O)Cn1c2ccccc2c2cnn(C)c(=O)c21	706
O=C(O)CNC(=O)c1c(O)c2ccccc2n(Cc2ccccc2)c1=O	989
CC(C)NC(=O)CN1c2ccc(F)cc2-c2ccccc2S1(=O)=O	831
Cn1ncc2c(N3CCN(c4ccc(F)cc4)CC3)ncnc21	802
Cc1ccc(Cl)cc1N1CCN(c2cc(C(=O)O)c3cc(NC(=O)C(C)(C)C)ccc3n2)CC1	830
COc1ccc(OC)c(-c2ccc(=O)n(CCc3nc(-c4cccc(F)c4)no3)n2)c1	974
CCOC(=O)c1c(C)c(CCC(=O)NCc2ccc3c(c2)OCO3)c(C)n1C	865
